tested_system: human A1 receptor (Homo sapiens, UniProt P30542)
Construct: expressed in transfected cells; host or cells: CHO
Sequence (P30542 whole entry): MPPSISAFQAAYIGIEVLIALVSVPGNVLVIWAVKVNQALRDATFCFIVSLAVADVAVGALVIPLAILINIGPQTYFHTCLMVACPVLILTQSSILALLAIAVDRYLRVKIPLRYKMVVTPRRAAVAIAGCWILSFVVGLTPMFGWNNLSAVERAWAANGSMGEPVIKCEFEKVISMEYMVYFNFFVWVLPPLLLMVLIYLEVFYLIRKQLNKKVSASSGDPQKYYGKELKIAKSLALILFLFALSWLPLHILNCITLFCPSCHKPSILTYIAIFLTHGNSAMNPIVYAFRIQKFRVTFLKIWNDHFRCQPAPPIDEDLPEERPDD
protocol_description: Functional A1 receptor activity, recombinant CHO cells, cAMP (HTRF), forskolin, agonist CPA
Assay type: cell-based
experimental_context: recombinant CHO cells, forskolin, agonist CPA; read-out: Functional A1 receptor activity, CHO, cAMP, IC50
measure: IC50

Q: Give the measured IC50 for COc1nc(F)c(C2CCOCC2)c2sc(NC(=O)c3cnn(C)c3)nc12 [Compound 23]
Result: < 1000 nM

Q: Give the measured IC50 for COc1ncc(-c2cccc(O)c2)c2sc(NC(=O)N3CCC4(CCOCC4)C3)nc12 [Compound 153]
Result: < 1000 nM

Q: Give the measured IC50 for COc1ncc(C2=CCOCC2)c2sc(NC(=O)c3ccc(C(=O)N4CCC(C)(O)CC4)cc3)nc12 [Compound 129]
Result: < 1000 nM

Q: Give the measured IC50 for COc1nc(F)c(C2CCOCC2)c2sc(NC(=O)C3CC3)nc12 [Compound 28]
Result: < 1000 nM

Q: Give the measured IC50 for COc1ncc(C2=CCOCC2)c2sc(NC(=O)N3CCC(N4C(=O)CCC4=O)CC3)nc12 [Compound 100]
Result: < 1000 nM

Q: Give the measured IC50 for COc1nc(F)c(C2CCOCC2)c2sc(NC(=O)c3ccc(C(=O)N(C)CCO)cc3)nc12 [Compound 50]
Result: > 1000 nM

Q: Give the measured IC50 for COc1ncc(-c2cccc(Oc3cnn(C)c3)c2)c2sc(NC(=O)N3CCC4(CCOCC4)C3)nc12 [Compound 147]
Result: > 1000 nM

Q: Give the measured IC50 for COC(=O)N(C)Cc1ccc(C(=O)Nc2nc3c(OC)ncc(-c4ccccc4)c3s2)cc1 [Compound 97]
Result: > 1000 nM

Q: Give the measured IC50 for COc1ncc(-c2cccc(Oc3cccnc3)c2)c2sc(NC(=O)N3CCC4(CCOCC4)C3)nc12 [Compound 160]
Result: < 1000 nM

Q: Give the measured IC50 for COc1nc(F)c(C2CCOCC2)c2sc(NC(=O)N3CCC4(CCCOC4)C3)nc12 (stereo not drawn) [Compound 31]
Result: > 1000 nM

Q: Give the measured IC50 for COc1ncc(C2=CCSCC2)c2sc(NC(=O)N3CCC4(CCOCC4)C3)nc12 [Compound 64]
Result: < 1000 nM

Q: Give the measured IC50 for COc1nc(F)c(C2CCOCC2)c2sc(NC(=O)N3CC[C@@]4(CCCOC4)C3)nc12 [Compound 35]
Result: > 1000 nM

Q: Give the measured IC50 for COc1ncc(-c2ccc(C)o2)c2sc(NC(=O)N3CCC4(CCOCC4)C3)nc12 [Compound 114]
Result: < 1000 nM

Q: Give the measured IC50 for COc1ncc(-c2cnn(Cc3ccccc3)c2)c2sc(NC(=O)N3CCC4(CCOCC4)C3)nc12 [Compound 76]
Result: < 100 nM

Q: Give the measured IC50 for COc1ncc(-c2ccco2)c2sc(NC(=O)N3CCC4(CCOCC4)C3)nc12 [Compound 48]
Result: > 1000 nM

Q: Give the measured IC50 for COc1ncc(-c2ccccc2)c2sc(NC(=O)c3ccc(C(=O)O)cc3)nc12 [Compound 109]
Result: > 1000 nM

Q: Give the measured IC50 for COc1ncc(C2=CCOCC2)c2sc(NC(=O)Nc3ccc(N4CCOC4=O)cc3)nc12 [Compound 95]
Result: < 1000 nM

Q: Give the measured IC50 for COc1ncc(C2=CCOCC2)c2sc(NC(=O)N3CCC(N4C(=O)C=CC4=O)CC3)nc12 [Compound 88]
Result: > 1000 nM

Q: Give the measured IC50 for COc1ncc(C2=CCOCC2)c2sc(NC(=O)Nc3ccc(N4CCCC4=O)cc3)nc12 [Compound 89]
Result: > 1000 nM

Q: Give the measured IC50 for COc1ncc(C2=CCOCC2)c2sc(NC(=O)Nc3ccc(NC(=O)CN(C)C)cc3)nc12 [Compound 90]
Result: > 1000 nM

Q: Give the measured IC50 for COc1ncc(-c2ccc(F)c(O)c2)c2sc(NC(=O)N3CCC4(CCOCC4)C3)nc12 [Compound 149]
Result: < 1000 nM

Q: Give the measured IC50 for COc1ncc(-c2ccccc2)c2sc(NC(=O)c3c[nH]cn3)nc12 [Compound 60]
Result: < 1000 nM

Q: Give the measured IC50 for COc1nc(F)c(-c2ccc(F)cc2)c2sc(NC(=O)N3CCC4(CCOCC4)C3)nc12 [Compound 29]
Result: > 1000 nM

Q: Give the measured IC50 for COc1ncc(C2=CCOCC2)c2sc(NC(=O)c3ccc(C(=O)N4CCN(C)CC4)cc3)nc12 [Compound 125]
Result: < 1000 nM

Q: Give the measured IC50 for COc1ncc(-c2ccccc2)c2sc(NC(=O)N3CC[C@@H](CN)C3)nc12 [Compound 3]
Result: < 1000 nM

Q: Give the measured IC50 for COc1ncc(-c2cccc(N)c2)c2sc(NC(=O)N3CCC4(CCOCC4)C3)nc12 [Compound 39]
Result: > 1000 nM

Q: Give the measured IC50 for COc1ncc(C2=CCOCC2)c2sc(NC(=O)N3CCC4(CCCOC4)C3)nc12 (stereo not drawn) [Compound 15]
Result: > 1000 nM

Q: Give the measured IC50 for COc1ncc(-c2cnn(Cc3ccccn3)c2)c2sc(NC(=O)N3CCC4(CCOCC4)C3)nc12 [Compound 69]
Result: < 100 nM

Q: Give the measured IC50 for COc1ncc(C2COCCO2)c2sc(NC(=O)c3ccc(C(=O)O)cc3)nc12 (stereo not drawn) [Compound 161]
Result: > 1000 nM

Q: Give the measured IC50 for COc1ncc(-c2cccs2)c2sc(NC(=O)N3CCC4(CCOCC4)C3)nc12 [Compound 47]
Result: > 1000 nM

Q: Give the measured IC50 for COc1ncc(C2=CCOCC2)c2sc(NC(=O)c3ccc(-n4ccnn4)cc3)nc12 [Compound 71]
Result: < 1000 nM

Q: Give the measured IC50 for COc1nc(F)c(N2CCOCC2)c2sc(NC(=O)C3CC3)nc12 [Compound 4]
Result: > 1000 nM

Q: Give the measured IC50 for COc1ncc(-c2csc(C)n2)c2sc(NC(=O)N3CCC4(CCOCC4)C3)nc12 [Compound 67]
Result: < 1000 nM

# credit: patent US12344623B2
